Experimental System: apo-human transferrin (apo-hTf) (Homo sapiens)
Procedure Summary: Fluorescence quenching of apo-hTf
Type: binding
Experimental Setup: 303 K, pH 7.4
Test Readout: Stern-Volmer quenching constant Ksv (M⁻¹)

| Compound | Experimental System | Units Symbol | Experimental Value |
| --- | --- | --- | --- |
| [Cl-].[Cl-].[Hf+4].c1cc[cH-]c1.c1cc[cH-]c1 | apo-human transferrin (apo-hTf) (Homo sapiens) | M⁻¹ | 1570 |
| [Cl][Zr+2][Cl].c1cc[cH-]c1.c1cc[cH-]c1 | apo-human transferrin (apo-hTf) (Homo sapiens) | M⁻¹ | 1970 |
| [Cl-].[Cl-].[Mo+4].c1cc[cH-]c1.c1cc[cH-]c1 | apo-human transferrin (apo-hTf) (Homo sapiens) | M⁻¹ | 1590 |
| [Cl-].[Cl-].[Ti+4].c1cc[cH-]c1.c1cc[cH-]c1 [Cp2TiCl2, titanocene dichloride] | apo-human transferrin (apo-hTf) (Homo sapiens) | M⁻¹ | 1680 |
| C1CCCC1.C1CCCC1.[Cl][W][Cl] | apo-human transferrin (apo-hTf) (Homo sapiens) | M⁻¹ | 1760 |
| N.N.[Cl][Pt][Cl] [(NH3)2Pt(II)Cl2, cis-diamminedichloroplatinum (II), reference compound] | apo-human transferrin (apo-hTf) (Homo sapiens) | M⁻¹ | 1100 |
| [Cl-].[Cl-].[V+4].c1cc[cH-]c1.c1cc[cH-]c1 | apo-human transferrin (apo-hTf) (Homo sapiens) | M⁻¹ | 40850 |
| C1CCCC1.C1CCCC1.[Cl][Nb][Cl] | apo-human transferrin (apo-hTf) (Homo sapiens) | M⁻¹ | 28040 |

###

Experimental System: apo-human transferrin (apo-hTf) (Homo sapiens, UniProt P02787)
Sequence (P02787 20-698): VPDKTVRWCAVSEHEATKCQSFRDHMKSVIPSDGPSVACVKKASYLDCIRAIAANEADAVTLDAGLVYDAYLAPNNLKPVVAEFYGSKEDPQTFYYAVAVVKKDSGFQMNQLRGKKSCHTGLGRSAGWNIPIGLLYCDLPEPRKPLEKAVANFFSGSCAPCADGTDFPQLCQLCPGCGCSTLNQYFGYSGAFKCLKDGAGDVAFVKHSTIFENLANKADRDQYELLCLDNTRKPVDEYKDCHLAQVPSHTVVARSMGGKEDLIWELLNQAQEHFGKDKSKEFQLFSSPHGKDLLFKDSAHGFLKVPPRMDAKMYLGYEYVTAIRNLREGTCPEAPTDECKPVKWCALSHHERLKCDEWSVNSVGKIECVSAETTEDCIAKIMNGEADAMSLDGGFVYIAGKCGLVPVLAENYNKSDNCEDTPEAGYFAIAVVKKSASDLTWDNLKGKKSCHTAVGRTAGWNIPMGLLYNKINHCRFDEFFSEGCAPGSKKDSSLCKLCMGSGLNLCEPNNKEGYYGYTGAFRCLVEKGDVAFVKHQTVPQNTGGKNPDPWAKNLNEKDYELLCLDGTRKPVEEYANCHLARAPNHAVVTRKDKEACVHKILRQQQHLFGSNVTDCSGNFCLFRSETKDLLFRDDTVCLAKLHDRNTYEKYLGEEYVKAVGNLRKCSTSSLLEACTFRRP
Procedure Summary: Far-UV circular dichroism titration of apo-hTf, secondary structure content
Experimental Setup: compound concentration 1.2 (M)
Catalogue of β-sheet content of apo-hTf values
Test Readout: β-sheet content of apo-hTf (%)

| Compound | Experimental Value |
| --- | --- |
| N.N.[Cl][Pt][Cl] [(NH3)2Pt(II)Cl2, cis-diamminedichloroplatinum (II), reference compound] | 18.3 |
| [Cl-].[Cl-].[Mo+4].c1cc[cH-]c1.c1cc[cH-]c1 [Cp2MoCl2] | 18.4 |
| C1CCCC1.C1CCCC1.[Cl][W][Cl] [Cp2WCl2] | 18.4 |
| [Cl-].[Cl-].[V+4].c1cc[cH-]c1.c1cc[cH-]c1 [Cp2VCl2] | 18.3 |
| [Cl][Zr+2][Cl].c1cc[cH-]c1.c1cc[cH-]c1 [Cp2ZrCl2] | 18.3 |
| C1CCCC1.C1CCCC1.[Cl][Nb][Cl] [Cp2NbCl2] | 18.5 |
| [Cl-].[Cl-].[Hf+4].c1cc[cH-]c1.c1cc[cH-]c1 [Cp2HfCl2] | 17.7 |
| [Cl-].[Cl-].[Ti+4].c1cc[cH-]c1.c1cc[cH-]c1 [Cp2TiCl2, titanocene dichloride] | 18.3 |

###

Experimental System: UniProt P02787
Procedure Summary: Far-UV circular dichroism titration of apo-hTf, secondary structure content
Experimental Setup: compound concentration 1.6 (M)
Test Readout: random coil content of apo-hTf (%)

| Molecule | Test Readout | Experimental Value |
| --- | --- | --- |
| [Cl-].[Cl-].[Mo+4].c1cc[cH-]c1.c1cc[cH-]c1 | random coil content of apo-hTf | 34.3 |
| C1CCCC1.C1CCCC1.[Cl][W][Cl] | random coil content of apo-hTf | 34.1 |
| [Cl-].[Cl-].[Hf+4].c1cc[cH-]c1.c1cc[cH-]c1 | random coil content of apo-hTf | 34 |
| [Cl-].[Cl-].[Ti+4].c1cc[cH-]c1.c1cc[cH-]c1 [Cp2TiCl2, titanocene dichloride] | random coil content of apo-hTf | 33.9 |
| C1CCCC1.C1CCCC1.[Cl][Nb][Cl] | random coil content of apo-hTf | 34.4 |
| [Cl][Zr+2][Cl].c1cc[cH-]c1.c1cc[cH-]c1 | random coil content of apo-hTf | 33.9 |
| N.N.[Cl][Pt][Cl] [(NH3)2Pt(II)Cl2, cis-diamminedichloroplatinum (II), reference compound] | random coil content of apo-hTf | 34 |
| [Cl-].[Cl-].[V+4].c1cc[cH-]c1.c1cc[cH-]c1 | random coil content of apo-hTf | 34.3 |

###

Catalogue of Förster critical energy transfer distance R0 values
Experimental System: apo-human transferrin (apo-hTf) (Homo sapiens, UniProt P02787)
Procedure Summary: Fluorescence resonance energy transfer
Assay type: binding
Experimental Setup: k^2=2/3, n=1.336, ØD=0.118
Test Readout: Förster critical energy transfer distance R0

| Compound | Experimental Value |
| --- | --- |
| C1CCCC1.C1CCCC1.[Cl][W][Cl] | 4.53 nm |
| [Cl-].[Cl-].[Ti+4].c1cc[cH-]c1.c1cc[cH-]c1 [Cp2TiCl2, titanocene dichloride] | 5.03 nm |
| [Cl][Zr+2][Cl].c1cc[cH-]c1.c1cc[cH-]c1 | 7.3 nm |
| [Cl-].[Cl-].[Hf+4].c1cc[cH-]c1.c1cc[cH-]c1 | 6.91 nm |
| N.N.[Cl][Pt][Cl] [(NH3)2Pt(II)Cl2, cis-diamminedichloroplatinum (II), reference compound] | 7.4 nm |
| [Cl-].[Cl-].[Mo+4].c1cc[cH-]c1.c1cc[cH-]c1 | 3.38 nm |
| C1CCCC1.C1CCCC1.[Cl][Nb][Cl] | 2.56 nm |
| [Cl-].[Cl-].[V+4].c1cc[cH-]c1.c1cc[cH-]c1 | 1.78 nm |

###

Catalogue of ∆G° values
Experimental System: apo-human transferrin (apo-hTf) (Homo sapiens, UniProt P02787)
Procedure Summary: Thermodynamic parameters of apo-hTf complex formation
Assay type: binding
Experimental Setup: 317 K
Test Readout: ∆G°

| Compound | Test Readout | Experimental Value |
| --- | --- | --- |
| [Cl-].[Cl-].[Hf+4].c1cc[cH-]c1.c1cc[cH-]c1 | ∆G° | -4.469 kcal/mol |
| [Cl-].[Cl-].[Ti+4].c1cc[cH-]c1.c1cc[cH-]c1 [Cp2TiCl2, titanocene dichloride] | ∆G° | -4.761 kcal/mol |
| [Cl][Zr+2][Cl].c1cc[cH-]c1.c1cc[cH-]c1 | ∆G° | -4.613 kcal/mol |

###

Experimental System: UniProt P02787
Procedure Summary: Thermodynamic parameters of apo-hTf complex formation
Type: binding
Experimental Setup: pH 7.4, from Ksv at 296-317 K
∆S° below 90 J/mol K gives NOT MET; ∆S° at or above it gives MET.

| Compound | Label Value |
| --- | --- |
| [Cl-].[Cl-].[V+4].c1cc[cH-]c1.c1cc[cH-]c1 [Cp2VCl2] | MET |
| [Cl-].[Cl-].[Hf+4].c1cc[cH-]c1.c1cc[cH-]c1 [Cp2HfCl2] | NOT MET |
| C1CCCC1.C1CCCC1.[Cl][W][Cl] [Cp2WCl2] | MET |
| N.N.[Cl][Pt][Cl] [(NH3)2Pt(II)Cl2, cis-diamminedichloroplatinum (II), reference compound] | NOT MET |
| [Cl][Zr+2][Cl].c1cc[cH-]c1.c1cc[cH-]c1 [Cp2ZrCl2] | NOT MET |
| [Cl-].[Cl-].[Mo+4].c1cc[cH-]c1.c1cc[cH-]c1 [Cp2MoCl2] | MET |
| C1CCCC1.C1CCCC1.[Cl][Nb][Cl] [Cp2NbCl2] | MET |

###

Experimental System: apo-human transferrin (apo-hTf) (Homo sapiens)
Procedure Summary: Fluorescence quenching of apo-hTf
Type: binding
Experimental Setup: 303 K, pH 7.4
Catalogue of number of binding sites n values
Test Readout: number of binding sites n

| Compound | Experimental Value |
| --- | --- |
| N.N.[Cl][Pt][Cl] [(NH3)2Pt(II)Cl2, cis-diamminedichloroplatinum (II), reference compound] | 1.01 |
| C1CCCC1.C1CCCC1.[Cl][Nb][Cl] | 1.27 |
| [Cl-].[Cl-].[Ti+4].c1cc[cH-]c1.c1cc[cH-]c1 [Cp2TiCl2, titanocene dichloride] | 1.09 |

###

Catalogue of number of binding sites n values
Experimental System: apo-human transferrin (apo-hTf) (Homo sapiens, UniProt P02787)
Procedure Summary: Fluorescence quenching of apo-hTf
Format: binding
Experimental Setup: 303 K, pH 7.4

| Chemical Structure | number of binding sites n |
| --- | --- |
| [Cl-].[Cl-].[Mo+4].c1cc[cH-]c1.c1cc[cH-]c1 | 1.23 |
| [Cl-].[Cl-].[V+4].c1cc[cH-]c1.c1cc[cH-]c1 | 1.2 |
| C1CCCC1.C1CCCC1.[Cl][W][Cl] | 1.13 |
| [Cl-].[Cl-].[Hf+4].c1cc[cH-]c1.c1cc[cH-]c1 | 1.17 |
| [Cl][Zr+2][Cl].c1cc[cH-]c1.c1cc[cH-]c1 | 1.03 |
